Sourced from ChEMBL document CHEMBL4007459

TARGET_OF_ASSAY: Dihydrofolate reductase (Homo sapiens)
Sequence (P00374 whole entry): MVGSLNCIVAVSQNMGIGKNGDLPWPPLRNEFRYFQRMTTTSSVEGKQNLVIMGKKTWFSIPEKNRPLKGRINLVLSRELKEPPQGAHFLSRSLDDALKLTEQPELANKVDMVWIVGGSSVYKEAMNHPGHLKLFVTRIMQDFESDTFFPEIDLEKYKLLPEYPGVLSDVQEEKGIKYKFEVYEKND
Recorded pIC50 for the following compounds
Kindly note that pIC50 refers to -log10 of the concentration in mol/L and answer with the value alone.

Example cases with answers are listed next.
Nc1nc(N)c2c(OCc3cc(F)cc(F)c3)cccc2n1 = 6.20
Nc1nc(N)c2c(COc3cccc(Cl)c3)cccc2n1 = 4.42
COC[C@@H](C)Oc1cccc2nc(N)nc(N)c12 = 4.60
CC1(COc2cccc3nc(N)nc(N)c23)COC1 = 4.82

Now examine the next entry.
Q. Form field: reported pIC50 of N#Cc1cc(F)cc(OCc2cccc3nc(N)nc(N)c23)c1
A. 4.28
